# assay target: human adenosine A1 receptor (Homo sapiens)
# Construct: membrane preparation
# Sequence (P30542 1-326): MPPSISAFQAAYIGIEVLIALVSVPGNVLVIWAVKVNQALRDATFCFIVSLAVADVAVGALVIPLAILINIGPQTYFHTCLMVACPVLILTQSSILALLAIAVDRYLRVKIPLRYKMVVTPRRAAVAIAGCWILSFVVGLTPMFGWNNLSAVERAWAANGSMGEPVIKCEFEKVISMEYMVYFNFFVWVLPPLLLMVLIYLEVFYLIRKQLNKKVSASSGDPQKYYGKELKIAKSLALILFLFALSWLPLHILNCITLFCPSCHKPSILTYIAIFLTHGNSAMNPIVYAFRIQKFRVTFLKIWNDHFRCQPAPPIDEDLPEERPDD
# method: Human adenosine A1 receptor radioligand binding assay ([3H]-DPCPX, SPA, CHO cell membranes)
# condition set: recombinant human A1 receptor expressed in CHO cells; [3H]-DPCPX 0.6 nM; Ki from IC50 by Cheng-Prussoff equation; read-out: hA1 Ki
attribute measured: Ki (nM)

                                   molecule  attribute_measured  observed_result
0  COc1ccc(-c2cccs2)n2nc(NC(=O)c3cccc(CCl)c3)nc12 [Example 20]                  Ki             3300
1  CCc1ccc(C(=O)Nc2nc3c(OC)ccc(-c4ccccc4)n3n2)cc1 [Example 10]                  Ki             2000
2  COc1cccc(C(=O)Nc2nc3c(OC)ccc(-c4cccs4)n3n2)c1 [Example 19]                  Ki             4940
3  COc1ccc(-c2ccccc2)n2nc(NC(=O)c3cccc(Cl)c3)nc12 [Example 6]                  Ki             2870
4  COc1ccc(-c2cccs2)n2nc(NC(=O)c3ccccc3Br)nc12 [Example 17]                  Ki             2490
5  COc1ccc(-c2ccccc2)n2nc(NC(=O)c3ccc(C)s3)nc12 [Example 23]                  Ki             2830
6  COc1ccc(-c2cccs2)n2nc(NC(=O)c3ccc(Br)cc3)nc12 [Example 2]                  Ki             2390
7  COc1ccc(-c2ccc(OC)c3nc(NC(=O)c4ccc(C)s4)nn23)cc1 [Example 28]                  Ki             5210
8  COc1ccc(-c2ccccc2)n2nc(NC(=O)c3ccc(F)cc3)nc12 [Example 4]                  Ki             2240
